Source listed as patent US10844049B2.

- test_target: GLP1R (Homo sapiens)
- experiment: GLP1R cAMP HTRF assay, HEK293/GLP-1R/CRE/Luc (HEK293T cells)
- Format: cell-based
- settings: read-out: EC50
measured_quantity: EC50

For the molecule shown here, O=C(O)c1ccc2cc(CN3CCN(c4cccc(OCc5ccc(Cl)cc5F)n4)CC3)n(C[C@@H]3CCO3)c2c1 , give the reported EC50.
> 1000 nM

For the molecule shown here, N#Cc1ccc(COc2cccc(C3CCN(Cc4nc5ccc(C(=O)O)cc5n4C[C@@H]4CCO4)CC3)c2)c(F)c1 , give the reported EC50.
≤ 150 nM

For the molecule shown here, O=C(O)c1ccc2nc(CN3CCCN(c4cccc(OCc5ccc(Cl)cc5F)n4)CC3)n(C[C@@H]3CCO3)c2c1 , give the reported EC50.
≤ 150 nM

For the molecule shown here, O=C(O)c1ccc2nc(CN3CCN(c4ncnc(OCc5ccc(Cl)cc5F)n4)CC3)n(C[C@@H]3CCO3)c2c1 , give the reported EC50.
≤ 150 nM

For the molecule shown here, O=C(O)c1ccc2nc(CN3CC=C(c4cccc(OCc5ccc(Cl)cc5Cl)n4)CC3)n(C[C@@H]3CCO3)c2c1 , give the reported EC50.
≤ 15 nM

For the molecule shown here, O=C(O)c1ccc2nc(CN3CC=C(c4cccc(OCc5ccnc(Cl)c5)n4)CC3)n(C[C@@H]3CCO3)c2c1 , give the reported EC50.
≤ 150 nM

For the molecule shown here, CCOc1ccc(COc2cccc(C3=CCN(Cc4nc5ccc(C(=O)O)cc5n4C[C@@H]4CCO4)CC3)n2)cc1OC , give the reported EC50.
≤ 150 nM

For the molecule shown here, O=C(O)c1ccc2nc(CN3CCC(c4ccc5ccn(Cc6ccc(Cl)cc6F)c5n4)CC3)n(C[C@@H]3CCO3)c2c1 , give the reported EC50.
≤ 150 nM

For the molecule shown here, O=C(O)c1ccc2nc(CN3CCN(c4cc(F)c(F)c(OCc5ccc(Cl)cc5F)c4)CC3)n(C[C@@H]3CCO3)c2c1 , give the reported EC50.
≤ 15 nM

For the molecule shown here, O=C(O)c1ccc2nc(CN3CCC(=O)N(c4cccc(OCc5ccc(Cl)cc5F)n4)CC3)n(C[C@@H]3CCO3)c2c1 , give the reported EC50.
≤ 1000 nM

For the molecule shown here, Cc1ncccc1COc1cccc(C2=CCN(Cc3nc4ccc(C(=O)O)cc4n3C[C@@H]3CCO3)CC2)n1 , give the reported EC50.
≤ 150 nM

For the molecule shown here, CC1(C)CN(Cc2nc3ccc(C(=O)O)cc3n2C[C@@H]2CCO2)CC=C1c1cccc(OCc2ccc(C#N)cc2F)n1 , give the reported EC50.
≤ 1000 nM

For the molecule shown here, O=C(O)c1ccc2nc(CN3CCN(c4nc(OCc5ccc(Cl)cc5F)ncc4F)CC3)n(C[C@@H]3CCO3)c2c1 , give the reported EC50.
≤ 15 nM

For the molecule shown here, O=C(O)c1ccc2nc(CN3CC=C(c4ccc(F)c(OCc5ccc(Cl)cc5F)c4)CC3)n(C[C@@H]3CCO3)c2c1F , give the reported EC50.
≤ 15 nM

For the molecule shown here, O=C(O)c1ccc2nc(CN3CC=C(c4cccc(OCc5ccc(Cl)cc5F)c4)CC3)n(C[C@@H]3CCO3)c2n1 , give the reported EC50.
≤ 15 nM

For the molecule shown here, Cc1ccc(COc2cccc(C3=CCN(Cc4nc5ccc(C(=O)O)cc5n4C[C@@H]4CCO4)CC3)n2)cc1 , give the reported EC50.
≤ 15 nM

For the molecule shown here, O=C(O)c1ccc2nc(CN3CC=C(c4ccc(F)c(OCc5ccc(Cl)cc5F)c4F)CC3)n(C[C@@H]3CCO3)c2c1 , give the reported EC50.
≤ 1000 nM

For the molecule shown here, O=C(O)c1ccc2nc(CN3CC=C(c4cc(NCc5ccc(Cl)cc5F)ccc4F)CC3)n(C[C@@H]3CCO3)c2c1 , give the reported EC50.
≤ 150 nM

For the molecule shown here, O=C(O)c1ccc2nc(CN3CC=C(c4cccc(OCc5ccc(Cl)cc5F)n4)CC3)n(C[C@@H]3CCO3)c2c1F , give the reported EC50.
≤ 15 nM

For the molecule shown here, O=C(O)c1ccc2nc(CN3CCN(c4ccc(F)c(OCc5ccc(Cl)cc5F)c4)CC3)n(C[C@@H]3CCO3)c2c1 , give the reported EC50.
≤ 15 nM

For the molecule shown here, N#Cc1ccc(COc2cc(N3CCN(Cc4nc5ccc(C(=O)O)cc5n4C[C@@H]4CCO4)CC3)ccc2F)c(F)c1 , give the reported EC50.
≤ 15 nM

For the molecule shown here, O=C(O)c1ccc2nc(CN3CC4CCC3CN4c3cccc(OCc4ccc(Cl)cc4F)n3)n(C[C@@H]3CCO3)c2c1 (stereo partly drawn) , give the reported EC50.
> 1000 nM

For the molecule shown here, O=C(O)c1ccc2nc(CN3CCC(c4cncc(OCc5ccc(Cl)cc5F)n4)CC3)n(C[C@@H]3CCO3)c2c1 , give the reported EC50.
≤ 15 nM

For the molecule shown here, O=C(O)c1ccc2nc(CN3CCN(c4ccc5c(n4)N(Cc4ccc(Cl)cc4F)CCO5)CC3)n(C[C@@H]3CCO3)c2c1 , give the reported EC50.
> 1000 nM

For the molecule shown here, O=C(O)c1ccc2nc(CN3CC=C(c4cc(F)c(F)c(OCc5ccc(C#CC6CC6)cc5F)c4)CC3)n(C[C@@H]3CCO3)c2c1 , give the reported EC50.
≤ 150 nM

For the molecule shown here, O=C(O)c1ccc2nc(CN3CC=C(c4cccc(OCc5ccc(-n6ccnc6)cc5)n4)CC3)n(C[C@@H]3CCO3)c2c1 , give the reported EC50.
≤ 15 nM

For the molecule shown here, O=C(O)c1ccc2nc(CN3CC=C(c4ccc5ccn(Cc6ccc(Cl)cc6F)c5c4)CC3)n(C[C@@H]3CCO3)c2c1 , give the reported EC50.
> 1000 nM

====

- test_target: GLP1R (Homo sapiens, UniProt P43220)
- Sequence (P43220 24-463): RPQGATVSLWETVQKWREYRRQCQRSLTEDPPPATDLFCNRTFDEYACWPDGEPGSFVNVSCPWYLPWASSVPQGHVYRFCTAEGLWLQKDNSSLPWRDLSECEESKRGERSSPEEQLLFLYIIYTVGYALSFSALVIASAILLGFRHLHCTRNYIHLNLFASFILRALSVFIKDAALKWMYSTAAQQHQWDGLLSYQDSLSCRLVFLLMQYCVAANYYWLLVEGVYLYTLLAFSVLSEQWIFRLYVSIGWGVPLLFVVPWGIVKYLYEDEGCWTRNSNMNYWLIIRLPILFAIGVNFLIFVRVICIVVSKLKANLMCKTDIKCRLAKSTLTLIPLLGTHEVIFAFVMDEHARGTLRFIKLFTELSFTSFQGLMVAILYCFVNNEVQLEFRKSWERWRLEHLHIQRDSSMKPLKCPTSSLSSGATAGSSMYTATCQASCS
- experiment: GLP1R cAMP HTRF assay, HEK293/GLP-1R/CRE/Luc (HEK293T cells)
- Type: cell-based
- settings: read-out: EC50
pEC50: −log10 of the molar value.
So I've got a bunch of compounds here, and I need their pEC50 values.

Lab note: need pEC50 with GLP1R (Homo sapiens, UniProt P43220) for entry COc1ccc(COc2cccc(C3=CCN(Cc4nc5ccc(C(=O)O)cc5n4C[C@@H]4CCO4)CC3)n2)nc1 , please look it up.
≥ 7.82

Lab note: need pEC50 with GLP1R (Homo sapiens, UniProt P43220) for entry O=C(O)c1ccc2nc(CN3CC=C(c4nccc(NCc5ccc(Cl)cc5F)n4)CC3)n(C[C@@H]3CCO3)c2c1 , please look it up.
≥ 6.00

Lab note: need pEC50 with GLP1R (Homo sapiens, UniProt P43220) for entry O=C(O)c1ccc2nc(CN3CC=C(c4cc5cc[nH]c5c(OCc5ccc(Cl)cc5F)n4)CC3)n(C[C@@H]3CCO3)c2c1 , please look it up.
≥ 6.82

Lab note: need pEC50 with GLP1R (Homo sapiens, UniProt P43220) for entry O=C(O)c1ccc2nc(CN3CC=C(c4ccc5ccn(Cc6ccc(Cl)cc6F)c5n4)CC3)n(C[C@@H]3CCO3)c2c1 , please look it up.
≥ 6.82

Lab note: need pEC50 with GLP1R (Homo sapiens, UniProt P43220) for entry O=C(O)c1ccc2nc(CN3CC=C(c4nccc(OCc5ccc(C#CC6CC6)cc5F)n4)CC3)n(C[C@@H]3CCO3)c2c1 , please look it up.
≥ 7.82

Lab note: need pEC50 with GLP1R (Homo sapiens, UniProt P43220) for entry CCn1cnc(Cn2c(CN3CC=C(c4cccc(OCc5ccc(C#N)cc5F)n4)CC3)nc3ccc(C(=O)O)cc32)c1 , please look it up.
≥ 6.82

Lab note: need pEC50 with GLP1R (Homo sapiens, UniProt P43220) for entry O=C(O)c1ccc2nc(CN3CC=C(c4ccnc(NCc5ccc(Cl)cc5F)c4)CC3)n(C[C@@H]3CCO3)c2c1 , please look it up.
≥ 6.00

====

So I've got a bunch of compounds here, and I need their EC50 values.
- test_target: GLP1R (Homo sapiens)
- experiment: GLP1R cAMP HTRF assay, HEK293/GLP-1R/CRE/Luc (HEK293T cells)
- Type: cell-based
- settings: read-out: EC50

For the compound shown here, N#Cc1ccc(COc2cc(C3=CCN(Cc4nc5ccc(C(=O)O)cc5n4C[C@@H]4CCO4)CC3)cc(F)c2F)c(F)c1 , give the reported EC50.
≤ 0.15 µM

For the compound shown here, O=C(O)c1ccc2nc(CN3CC=C(c4nc(OCc5ccc(C#CC6CC6)cc5F)c(F)cc4F)CC3)n(C[C@@H]3CCO3)c2c1 , give the reported EC50.
≤ 0.015 µM

For the compound shown here, O=C(O)c1ccc2nc(CN3CC=C(c4cccc(OCc5cccnc5Cl)n4)CC3)n(C[C@@H]3CCO3)c2c1 , give the reported EC50.
≤ 0.015 µM

For the compound shown here, O=C(O)c1ccc2nc(CN3CC=C(c4ccc(F)c(NCc5ccc(Cl)cc5F)c4)CC3)n(C[C@@H]3CCO3)c2c1 , give the reported EC50.
≤ 0.015 µM

For the compound shown here, O=C(O)c1ccc2nc(CN3CC=C(c4ccnc(OCc5ccc(F)cc5F)n4)CC3)n(C[C@@H]3CCO3)c2c1 , give the reported EC50.
≤ 0.15 µM

For the compound shown here, O=C(O)c1ccc2nc(CN3CCC(F)(c4cccc(OCc5ccc(Cl)cc5F)n4)CC3)n(C[C@@H]3CCO3)c2c1 , give the reported EC50.
≤ 0.15 µM

For the compound shown here, O=C(O)c1ccc2nc(CN3CC=C(c4cccc(OCc5ccc(Cl)cc5F)n4)CC3)n(Cc3ncco3)c2c1 , give the reported EC50.
≤ 0.015 µM
